Values were extracted from PubChem BioAssay.

Kindly supply the reported composite z-score values for the records listed here.
test system: PRMT1 (protein arginine N-methyltransferase 1); assay: small molecules binding arginine methyltransferase PRMT1 – biochemical, small-molecule microarray, 635 nm fluorescence, primary screen (AID 1088); conditions: higher = more signal;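 further: binding of Prmt1 protein to compounds spotted on small-molecule microarray slides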
Give bare numbers.

Reference set, count: 3
// recorded composite z-score for NC(=O)NCC#Cc1ccc2c(c1)[C@]1(C(=O)N2)[C@H](c2ccccc2OCCO)N2[C@H](c3ccccc3)[C@H](c3ccccc3)OC(=O)[C@H]2[C@@H]1C(=O)NC[C@H](O)c1ccccc1 : 0.415

// recorded composite z-score for C=CC[C@@H](OC(=O)Nc1ccc(OC)cc1)c1ccc(O)c(F)c1 : 0.349

// recorded composite z-score for O=C1OCCC/C=C\[C@H]2OC34C=CCN(c5ccc6ccccc6c5)C(=O)[C@H]3N(CCO)C(=O)[C@@H]4C12 (some centres undefined) : -0.352

Moving on to the next compound.
// recorded composite z-score for C=CC[C@@]1(C(=O)NCCCOC)N=C(c2ccc(OCCCO)cc2)O[C@@H]1c1ccccc1N=[N+]=[N-] : 1.14

---

test: viability profiling in MM1S myeloma cells – cell-based, resazurin fluorescence, basal, 24 h, PK04 Diversity Set, profiling panel (AID 1174); details: higher = more signal, called active from +8 up or from −8 down;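 further: MM1S multiple myeloma cell line; test concentration not given here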
Kindly supply the reported z-score values for the records listed here.
One number for each entry.

Answer for every listed entry: what is its z-score? The entries follow.
1. [N-]=[N+]=NCc1ccccc1C[C@@]1(C(N)=O)N=C(c2ccc(OCCCO)cc2)O[C@@H]1c1ccccc1
2. CC(C)[Si]1(C(C)C)OCc2cc(-c3ccc(-c4ccc(Cl)c(Cl)c4)o3)nc(-c3ccccc3)c21
3. Cn1cccc1C(O)C1C=CC2C(=O)N(c3ccccc3)C(=O)C2N1Nc1ccccc1 (stereo not drawn)
4. C=CC[C@H](OC(=O)Nc1ccc(SC)cc1)c1ccc(O)c2ccccc12

1. -1.22
2. 0.797
3. -0.251
4. -6.71

---

experiment: JC-1 mitochondrial signal, unstimulated myeloma cells – cell-based, JC-1 fluorescence, RPMI8226, 24 h, 100 nL compound, profiling panel (AID 1169); conditions: JC-1 mitochondrial potential fluorescence, higher = more signal; further: test concentration not given here
Please mark met if the recorded z-score is equal to or greater than -0.2, and not met if it falls below.

Example results:
Form field: z-score at least -0.2? Entry: COC(=O)[C@@]1(Cc2ccccc2)[C@H]2c3cc(C(=O)N4CCCC4)n(CCc4ccccn4)c3C[C@H]2CN1C(=O)c1ccccc1
not met

Form field: z-score at least -0.2? Entry: CO[C@H]1O[C@H](CO)[C@@H](OC(=O)Nc2ccc3c(c2)OCO3)[C@H](OC(=O)Nc2ccc3c(c2)OCO3)[C@@H]1OC(=O)Nc1ccc2c(c1)OCO2
not met

Further cases:
Form field: z-score at least -0.2? Entry: COCCOC(=O)N1C(=O)[C@@]2(c3cc(C#CC4=CCCCC4)ccc31)[C@H](C(=O)Nc1nc3ccccc3s1)[C@H]1C(=O)O[C@H](c3ccccc3)[C@H](c3ccccc3)N1[C@@H]2c1ccc(O)cc1
not met

Form field: z-score at least -0.2? Entry: CCCC[C@@H](O)C1=C(COC)C[C@H]2C(=O)N(C)C(=O)[C@H]2[C@H]1CO
met

Form field: z-score at least -0.2? Entry: [N-]=[N+]=Nc1ccccc1[C@H]1OC(c2ccc(OCCCO)cc2)=N[C@@]1(Cc1ccccc1)C(=O)NCCN1CCOCC1
not met

Form field: z-score at least -0.2? Entry: CCOC(=O)C[C@H]1[C@H](OC(=O)c2cc3ccccc3oc2=O)[C@@H](NC(=O)c2ccc3ccccc3n2)c2cc(OCCCO)ccc2N1C(=O)Cc1ccc(OC)cc1
met

Form field: z-score at least -0.2? Entry: CCCCCCCCCC(O)C1C=CC2C(=O)N(c3ccccc3)C(=O)C2N1Nc1cc(OC)c(OC)c(OC)c1 (stereo not drawn)
not met

Form field: z-score at least -0.2? Entry: CCOC(=O)C[C@H]1[C@H](OC(=O)c2ccccc2-c2ccccc2)[C@@H](NC(=O)c2ccc3ccccc3n2)c2cc(OCCCO)ccc2N1C(=O)Cc1ccc(OC)cc1
not met

Form field: z-score at least -0.2? Entry: CC#CCO[Si](C#Cc1ccccc1)(C(C)C)C(C)C
not met

Form field: z-score at least -0.2? Entry: C[C@@H]1NC(=O)[C@@H](Cc2ccccc2)NC(=O)[C@@]23C(=O)N[C@@H](Cc4ccccc4)C2[C@H](C)[C@@]2(C)O[C@H]2C3/C=C/C/C=C\CNC1=O (stereo partly drawn)
met

Form field: z-score at least -0.2? Entry: CC1CC/C=C\[C@H]2OC34C=CCN(Cc5ccccc5)C(=O)[C@H]3N(C(CO)C(C)C)C(=O)[C@@H]4C2C(=O)O1 (stereo partly drawn)
not met

Form field: z-score at least -0.2? Entry: CC(C)c1ccc(NN2C(C(O)c3ccc(F)cc3)C=CC3C(=O)N(c4ccccc4)C(=O)C32)cc1 (stereo not drawn)
met

Form field: z-score at least -0.2? Entry: CCCC=C(CCC)[C@@H](NS(=O)(=O)c1ccc(C(F)(F)F)cc1)c1ccccc1
not met

Form field: z-score at least -0.2? Entry: COc1ccc([Si](C)(C)[C@H]2[C@H](CC(=O)N(CCO)Cc3ccccc3)O[C@@]3(C(=O)N(C)c4c(Br)cc(C)cc43)[C@@H]2C)cc1
not met

Form field: z-score at least -0.2? Entry: Cc1ccc(S[C@]2(C(=O)NCCN3CCOCC3)CC(=O)N(Cc3ccccc3Cl)[C@@H]2c2ccc(CO)cc2I)cc1
met

Form field: z-score at least -0.2? Entry: CCCCCN1CC=CC23O[C@@H]4C=CCCOC(=O)C4[C@H]2C(=O)N(CCCCCCO)[C@@H]3C1=O (stereo partly drawn)
met

Form field: z-score at least -0.2? Entry: CC(C)[Si](C#C[Si](C(C)C)(C(C)C)C(C)C)(O[C@H](c1ccccc1)c1cn(Cc2ccccc2)nn1)C(C)C
met

Form field: z-score at least -0.2? Entry: COCCCNC(=O)[C@@]1(Sc2ccc(C)cc2)CC(=O)N(C2Cc3ccccc3C2)[C@@H]1c1ccc(CO)cc1
met

Form field: z-score at least -0.2? Entry: O=C1O[C@H](c2ccccc2)[C@H](c2ccccc2)N2[C@H]1[C@@H](C(=O)O)[C@]1(C(=O)Nc3ccc(C#CCCO)cc31)[C@H]2c1ccccc1OCCO
not met

Form field: z-score at least -0.2? Entry: CC(C)c1ccc(NN2C(C(O)c3ccc(C#N)cc3)C=CC3C(=O)N(c4ccccc4)C(=O)C32)cc1 (stereo not drawn)
met

Form field: z-score at least -0.2? Entry: CO[C@H]1O[C@H](CO)[C@@H](OC(=O)Nc2ccc(Br)cc2)[C@@H]2OC(=O)[C@@H](Cc3ccccc3)C/C=C/C[C@H](Cc3ccccc3)C(=O)O[C@@H]12
not met

Form field: z-score at least -0.2? Entry: CC(C)[Si]1(C(C)C)OCc2cc(-c3ccc(-c4ccc(Cl)c(Cl)c4)o3)nc(-c3ccccc3)c21
met

Form field: z-score at least -0.2? Entry: CO[C@H]1O[C@H](CO)[C@@H](OC(=O)CCc2ccccc2)[C@@H]2OC(=O)[C@@H](Cc3ccccc3)C/C=C/C[C@H](Cc3ccccc3)C(=O)O[C@@H]12
met
